- MEASURED ON: T1, rat collagen, acid soluble, type I, rat tail (Upstate 08-115) (rat, UniProt P02454 152-1207; P02466 86-1125)
- T1 construct: tissue extract, gelled and dried in wells; also called dried rat collagen
- TEST: dried collagen assay
Bridge positions count the residues as written; N and C are the ends. Square brackets hold non-standard residues; d marks the D form. Primed or numbered codes have the meaning given here. Side chains are listed from the residue outwards. Ends that are not written are not given here. Bip = N[C@@H](Cc1ccc(-c2ccccc2)cc1)C(=O)O; Phe(4-NH2) = Nc1ccc(C[C@H](N)C(=O)O)cc1; Dab = NCC[C@H](N)C(=O)O; Gd^T = not defined here; Gd^T″ = GdDTPA-thiourea
Consider the following binders; for each one, report its % bound.
Give bare numbers, in %.

BINDER	QUANTITY UNIT	% bound
{Gd^T″}-GK([Gly-Gd^T″])WHCYTYFPHHYCLYG (disulfide 5-14 (inferred)) [Compound ID 943]	%	72

Give % bound for all binders that follow.
1. {Gd^T″}-GK([Gly-Gd^T″])WHCTTYFPHHYCL[Phe(4-NH2)](Gd^T″)G (disulfide 5-14 (inferred); not fully specified (C-terminus)) [Compound ID 971]
2. {Gd^T″}-GQWHCT[dS]RFPHHYCLYG (disulfide 5-14 (inferred); not fully specified (C-terminus)) [Compound ID 898]
3. {Gd^T″}-GQWK(Gd^T″)CTTRFPHHYCLYG (disulfide 5-14 (inferred)) [Compound ID 956]
4. {Gd^T}-PPQWHCTTRFPHHYCLYG (disulfide 6-15 (inferred); not fully specified (C-terminus); reading uncertain) [Compound ID 854]
5. {Gd^T}-DWTCYGDEYTWHCNYE (disulfide 4-13 (inferred); not fully specified (C-terminus); reading uncertain) [Compound ID 844]
6. GQWTCSGDAYTWHCNYE (disulfide 5-14 (inferred); not fully specified (N-terminus, C-terminus)) [Compound ID 838]
7. {Gd^T″}-G[Dab]([Gly-Gd^T″])WHCYTK(Gd^T″)FPHHYCVY[Bip] (disulfide 5-14) [Compound ID 1007]

OUT:
1. 25
2. 3
3. 15
4. 56
5. 48
6. 61
7. 92

Give % bound for all binders that follow.
1. {Gd^T″}-GK([Gly-Gd^T″])WHCYTK(Gd^T″)FPYHYCVYY (disulfide 5-14 (inferred)) [Compound ID 1011]
2. {Gd^T″}-GQWSCTTRFPHHYCLYG (disulfide 5-14 (inferred)) [Compound ID 870]

OUT:
[93, 28]
